Test system: Mus musculus
experiment: Anticonvulsant activity in ip dosed CF-1 albino mouse assessed as protection against maximal electroshock-induced seizures after 4 hrs
Assay type: functional
Each entry below carries its recorded MED50.
State just the number; it will be interpreted in mg/kg.

Please review the following examples before continuing.
CC1(C)CC(=O)N(CN2CCN(c3ccccc3)CC2)C1=O :: 100
CC1(c2ccccc2)CC(=O)N(CN2CCN(c3ccc(F)cc3)CC2)C1=O (centres undefined) :: 100
CC1(c2ccccc2)CC(=O)N(CN2CCN(c3ccccc3F)CC2)C1=O (centres undefined) :: 100

Now for another entry.
[Q] Item CC1(C)CC(=O)N(CN2CCN(c3cccc(C(F)(F)F)c3)CC2)C1=O has what recorded MED50?
[A] 30
